Experiment: Half life in Sprague-Dawley rat at 1 mg/kg, iv
Assay type: ADME, organism-based
Set-up: dose 1 mg/kg, route intravenous
Conditions: in vivo
Property Label: half-life

### Prompt Entry CC(C)Oc1ccc2c(c1)CCc1c-2c2c(c3c4ccccc4n(CCO)c13)CNC2=O has what half-life?
### Response 48 min

* * *

Property Label: IC50

### Prompt Value wanted: IC50 (Vascular endothelial growth factor receptor 1 (Homo sapiens)) of entry COc1ccc2c(c1)CCc1c-2c2c(c3c4ccccc4n(CCO)c13)CNC2=O
### Response > 10 µM

* * *

Biological target: Vascular endothelial growth factor receptor 2 (Homo sapiens, UniProt P35968)
Sequence (P35968 whole entry): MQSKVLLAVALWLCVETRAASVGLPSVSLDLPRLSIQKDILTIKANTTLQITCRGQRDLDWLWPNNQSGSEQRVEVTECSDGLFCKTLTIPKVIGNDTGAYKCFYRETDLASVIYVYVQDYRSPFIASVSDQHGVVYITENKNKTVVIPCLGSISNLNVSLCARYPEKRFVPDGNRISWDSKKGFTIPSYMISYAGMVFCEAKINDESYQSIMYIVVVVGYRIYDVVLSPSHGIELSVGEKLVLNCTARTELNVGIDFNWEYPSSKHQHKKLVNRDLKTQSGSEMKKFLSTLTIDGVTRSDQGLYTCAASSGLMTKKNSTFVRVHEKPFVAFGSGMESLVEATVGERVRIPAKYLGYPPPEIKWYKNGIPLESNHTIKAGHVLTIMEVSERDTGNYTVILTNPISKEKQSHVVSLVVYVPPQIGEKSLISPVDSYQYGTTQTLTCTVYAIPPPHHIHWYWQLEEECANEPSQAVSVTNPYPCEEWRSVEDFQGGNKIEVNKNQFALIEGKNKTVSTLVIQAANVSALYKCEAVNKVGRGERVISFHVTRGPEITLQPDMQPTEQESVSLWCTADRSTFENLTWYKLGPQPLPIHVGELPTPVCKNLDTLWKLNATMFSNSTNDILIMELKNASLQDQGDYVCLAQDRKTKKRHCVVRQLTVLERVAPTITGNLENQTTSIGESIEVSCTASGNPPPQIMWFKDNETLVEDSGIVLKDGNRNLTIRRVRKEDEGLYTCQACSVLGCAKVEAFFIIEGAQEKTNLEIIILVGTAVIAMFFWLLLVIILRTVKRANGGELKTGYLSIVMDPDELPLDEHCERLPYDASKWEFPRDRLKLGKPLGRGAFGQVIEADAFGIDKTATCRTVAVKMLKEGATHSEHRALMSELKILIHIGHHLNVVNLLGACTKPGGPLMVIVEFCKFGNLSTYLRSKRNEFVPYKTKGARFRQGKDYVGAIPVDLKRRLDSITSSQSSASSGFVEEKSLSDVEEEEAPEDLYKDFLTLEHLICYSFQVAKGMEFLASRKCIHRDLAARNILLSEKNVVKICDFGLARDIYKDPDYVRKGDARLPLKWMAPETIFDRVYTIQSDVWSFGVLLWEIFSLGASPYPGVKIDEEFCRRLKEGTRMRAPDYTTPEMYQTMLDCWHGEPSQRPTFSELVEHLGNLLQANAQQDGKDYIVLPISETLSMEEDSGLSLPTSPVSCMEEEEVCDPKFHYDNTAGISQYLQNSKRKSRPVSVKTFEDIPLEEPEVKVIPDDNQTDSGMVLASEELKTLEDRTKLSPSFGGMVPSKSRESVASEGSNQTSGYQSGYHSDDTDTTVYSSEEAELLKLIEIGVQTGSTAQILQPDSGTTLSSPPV
Property Label: IC50 (µM)
Please reply with the bare figure in µM and do not write the unit itself.

### Prompt Entry COc1ccc2c(c1)CCc1c-2c2c(c3c4ccccc4n(CCO)c13)CNC2=O has what IC50?
### Response 4.71

* * *

Test: Metabolic stability in rat liver S9 fraction after 2 hrs in presence of NADPH
Assay type: ADME, subcellular
Details: read-out: Stability
I'd be grateful if you could share measured remaining at 2 h for these entries.
Please reply with the bare figure in % and do not write the unit itself.

### Prompt Entry COc1ccc2c(c1)CCc1c-2c2c(c3c4ccccc4n(CCO)c13)CNC2=O has what remaining at 2 h?
### Response 44

### Prompt Entry CC(C)Oc1ccc2c(c1)CCc1c-2c2c(c3c4ccccc4n(CCO)c13)CNC2=O has what remaining at 2 h?
### Response 44

* * *

Target: Mitogen-activated protein kinase kinase kinase 11 (Homo sapiens)
Sequence (Q16584 whole entry, the tested form may be a part): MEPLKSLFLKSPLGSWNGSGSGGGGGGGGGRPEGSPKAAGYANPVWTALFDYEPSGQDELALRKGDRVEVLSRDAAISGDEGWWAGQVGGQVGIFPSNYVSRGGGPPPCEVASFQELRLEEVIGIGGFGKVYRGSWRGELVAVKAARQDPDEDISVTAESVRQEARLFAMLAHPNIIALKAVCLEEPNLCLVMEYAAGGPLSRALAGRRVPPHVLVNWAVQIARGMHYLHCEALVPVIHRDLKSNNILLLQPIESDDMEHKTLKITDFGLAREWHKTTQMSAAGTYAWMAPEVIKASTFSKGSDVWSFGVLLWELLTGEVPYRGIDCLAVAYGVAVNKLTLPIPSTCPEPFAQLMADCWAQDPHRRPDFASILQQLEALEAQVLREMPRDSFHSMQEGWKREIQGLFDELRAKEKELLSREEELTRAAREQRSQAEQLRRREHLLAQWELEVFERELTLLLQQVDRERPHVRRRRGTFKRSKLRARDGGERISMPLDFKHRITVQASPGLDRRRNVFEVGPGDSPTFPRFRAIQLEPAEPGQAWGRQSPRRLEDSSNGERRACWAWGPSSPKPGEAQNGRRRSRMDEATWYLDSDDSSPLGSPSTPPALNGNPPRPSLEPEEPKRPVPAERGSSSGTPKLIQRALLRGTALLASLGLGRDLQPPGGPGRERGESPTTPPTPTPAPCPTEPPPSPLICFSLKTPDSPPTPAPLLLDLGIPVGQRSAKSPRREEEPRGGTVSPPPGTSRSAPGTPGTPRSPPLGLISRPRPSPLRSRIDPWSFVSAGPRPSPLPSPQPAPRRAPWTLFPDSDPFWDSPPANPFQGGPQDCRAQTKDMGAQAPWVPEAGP
Assay: Inhibition of GST-fused human MLK3
Property Label: IC50 (nM)
Please reply with the bare figure in nM and do not write the unit itself.

### Prompt Entry COc1ccc2c(c1)CCc1c-2c2c(c3c4ccccc4n(CCO)c13)CNC2=O has what IC50?
### Response 55

### Prompt Entry COc1ccc2c(c1)CCc1c-2c2c(c3c4ccccc4n(CCCO)c13)CNC2=O has what IC50?
### Response 87

### Prompt Entry CC(C)Oc1ccc2c(c1)CCc1c-2c2c(c3c1[nH]c1ccccc13)CNC2=O has what IC50?
### Response 159

### Prompt Entry COc1ccc2c(c1)CCc1c-2c2c(c3c1[nH]c1ccccc13)CNC2=O has what IC50?
### Response 274

### Prompt Entry CC(C)Oc1ccc2c(c1)CCc1c-2c2c(c3c4ccccc4n(CCO)c13)CNC2=O has what IC50?
### Response 65

### Prompt Entry O=C1NCc2c1c1c(c3c2c2ccccc2n3CCO)CCc2ccccc2-1 has what IC50?
### Response 1000

### Prompt Entry CCSCc1ccc2c(c1)c1c3c(c4c5cc(CSCC)ccc5n5c4c1n2[C@H]1C[C@](O)(C(=O)OC)[C@]5(C)O1)CNC3=O has what IC50?
### Response 64

* * *

Molecular target: Mitogen-activated protein kinase kinase kinase 10 (Homo sapiens)
Sequence (Q02779 whole entry): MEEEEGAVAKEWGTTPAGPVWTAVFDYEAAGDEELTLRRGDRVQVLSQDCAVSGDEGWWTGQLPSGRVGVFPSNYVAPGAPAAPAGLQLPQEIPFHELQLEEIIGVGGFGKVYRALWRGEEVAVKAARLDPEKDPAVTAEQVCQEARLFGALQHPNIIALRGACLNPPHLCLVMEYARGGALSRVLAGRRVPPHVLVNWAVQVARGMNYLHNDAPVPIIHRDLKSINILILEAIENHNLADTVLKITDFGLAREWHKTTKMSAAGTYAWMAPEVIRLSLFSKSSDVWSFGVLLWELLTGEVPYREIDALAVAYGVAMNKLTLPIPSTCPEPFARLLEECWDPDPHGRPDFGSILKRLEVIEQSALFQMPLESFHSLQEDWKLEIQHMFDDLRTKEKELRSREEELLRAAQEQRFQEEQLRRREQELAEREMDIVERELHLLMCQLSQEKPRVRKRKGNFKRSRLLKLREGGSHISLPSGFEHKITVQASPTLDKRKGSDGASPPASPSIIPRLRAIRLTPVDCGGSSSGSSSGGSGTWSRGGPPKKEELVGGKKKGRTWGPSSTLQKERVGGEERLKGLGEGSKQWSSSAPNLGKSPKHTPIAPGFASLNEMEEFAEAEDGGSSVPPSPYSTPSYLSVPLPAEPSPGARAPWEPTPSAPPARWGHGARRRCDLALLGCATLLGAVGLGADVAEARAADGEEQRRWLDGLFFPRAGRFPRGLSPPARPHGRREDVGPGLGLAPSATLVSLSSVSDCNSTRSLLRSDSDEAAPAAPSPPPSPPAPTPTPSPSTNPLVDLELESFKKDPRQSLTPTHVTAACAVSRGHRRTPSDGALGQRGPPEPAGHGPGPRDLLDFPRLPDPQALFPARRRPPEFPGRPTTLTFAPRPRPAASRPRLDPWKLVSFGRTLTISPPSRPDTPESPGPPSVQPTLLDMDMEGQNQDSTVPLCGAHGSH
Assay: Inhibition of human MLK2 expressed in baculovirus insect cell system
I'd be grateful if you could share measured IC50 for these entries.

### Prompt Entry CC(C)Oc1ccc2c(c1)CCc1c-2c2c(c3c4ccccc4n(CCO)c13)CNC2=O has what IC50?
### Response 1860 nM

### Prompt Entry COc1ccc2c(c1)CCc1c-2c2c(c3c4ccccc4n(CCO)c13)CNC2=O has what IC50?
### Response 1580 nM

* * *

Experiment: Half life in Sprague-Dawley rat at 5 mg/kg, po
Type: ADME, organism-based
Parameters: dose 5 mg/kg, route oral
Conditions: in vivo
Property Label: half-life
# do not omit the unit; it follows the number

### Prompt Entry CC(C)Oc1ccc2c(c1)CCc1c-2c2c(c3c4ccccc4n(CCO)c13)CNC2=O has what half-life?
### Response 1.1 h

* * *

Assay: Clearance in Sprague-Dawley rat at 2 mg/kg, iv
Assay type: ADME, organism-based
Design: dose 2 mg/kg, route intravenous
Conditions: in vivo
Property Label: clearance (mL/min/kg)
Please reply with the bare figure in mL/min/kg and do not write the unit itself.

### Prompt Entry COc1ccc2c(c1)CCc1c-2c2c(c3c4ccccc4n(CCO)c13)CNC2=O has what clearance?
### Response 19

* * *

Test: AUC in Sprague-Dawley rat at 2 mg/kg, iv
Format: ADME, organism-based
Design: dose 2 mg/kg, route intravenous
Conditions: plasma
Property Label: AUC (ng·h/mL)
Please reply with the bare figure in ng·h/mL and do not write the unit itself.

### Prompt Entry COc1ccc2c(c1)CCc1c-2c2c(c3c4ccccc4n(CCO)c13)CNC2=O has what AUC?
### Response 1730

* * *

Molecular target: Mitogen-activated protein kinase kinase kinase 9 (Homo sapiens, UniProt P80192)
Test: Inhibition of GST-fused human MLK1 expressed in CHO cells assessed as MKK4 phosphorylation
Type: cell-based
Sequence (P80192 whole entry, the tested form may be a part): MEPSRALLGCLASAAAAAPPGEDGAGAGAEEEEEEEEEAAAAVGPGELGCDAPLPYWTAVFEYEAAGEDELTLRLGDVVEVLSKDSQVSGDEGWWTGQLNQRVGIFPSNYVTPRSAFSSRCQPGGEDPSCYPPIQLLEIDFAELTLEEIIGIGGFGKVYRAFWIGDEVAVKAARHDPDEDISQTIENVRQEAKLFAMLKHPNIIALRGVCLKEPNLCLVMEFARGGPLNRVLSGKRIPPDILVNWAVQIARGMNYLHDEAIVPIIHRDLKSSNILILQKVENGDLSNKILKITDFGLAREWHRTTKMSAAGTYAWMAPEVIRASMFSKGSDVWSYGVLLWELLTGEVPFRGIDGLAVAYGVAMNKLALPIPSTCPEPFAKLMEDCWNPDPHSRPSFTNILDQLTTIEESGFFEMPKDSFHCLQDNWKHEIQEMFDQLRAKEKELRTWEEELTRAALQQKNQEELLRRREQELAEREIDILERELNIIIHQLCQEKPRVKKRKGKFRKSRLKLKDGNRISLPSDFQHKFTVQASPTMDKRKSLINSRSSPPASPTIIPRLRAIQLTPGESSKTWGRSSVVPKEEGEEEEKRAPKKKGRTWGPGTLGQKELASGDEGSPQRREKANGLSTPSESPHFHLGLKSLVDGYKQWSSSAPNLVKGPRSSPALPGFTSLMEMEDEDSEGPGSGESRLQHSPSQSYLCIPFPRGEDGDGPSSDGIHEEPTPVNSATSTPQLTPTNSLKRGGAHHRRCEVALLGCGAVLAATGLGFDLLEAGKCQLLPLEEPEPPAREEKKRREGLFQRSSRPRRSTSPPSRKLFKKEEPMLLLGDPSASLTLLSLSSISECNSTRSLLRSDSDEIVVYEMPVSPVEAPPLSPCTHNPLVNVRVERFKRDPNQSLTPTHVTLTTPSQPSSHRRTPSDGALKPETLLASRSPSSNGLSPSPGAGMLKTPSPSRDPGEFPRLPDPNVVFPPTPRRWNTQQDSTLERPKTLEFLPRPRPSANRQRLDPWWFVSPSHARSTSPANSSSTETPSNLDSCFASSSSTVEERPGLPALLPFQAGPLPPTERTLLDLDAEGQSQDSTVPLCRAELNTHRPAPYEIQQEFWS
pIC50: −log10 of the molar value.
Rule: label 1 for pIC50 not less than 7, label 0 for anything less.

### Prompt // inclusive: pIC50 at least 7? input: CC(C)Oc1ccc2c(c1)CCc1c-2c2c(c3c1[nH]c1ccccc13)CNC2=O
### Response label 0

### Prompt // inclusive: pIC50 at least 7? input: O=C1NCc2c1c1c(c3c2c2ccccc2n3CCO)CCc2cc(OC3CCCC3)ccc2-1
### Response label 0

### Prompt // inclusive: pIC50 at least 7? input: CC(C)Oc1ccc2c(c1)CCc1c-2c2c(c3c4ccccc4n(CCO)c13)CNC2=O
### Response label 1

* * *

Target: Mitogen-activated protein kinase kinase kinase 9 (Homo sapiens, UniProt P80192)
Experiment: Inhibition of GST-fused human MLK1 at 1 uM
Sequence (P80192 whole entry, looked up, the tested form may be a part): as the sequence (P80192 whole entry, the tested form may be a part) above
I'd be grateful if you could share measured inhibition for these entries.

### Prompt Entry N#CCOc1ccc2c(c1)CCc1c-2c2c(c3c4ccccc4n(CCO)c13)CNC2=O has what inhibition?
### Response 30%

### Prompt Entry O=C1NCc2c1c1c(c3c2c2ccccc2n3CCO)CCc2cc(OC3CCCCC3)ccc2-1 has what inhibition?
### Response 35%

### Prompt Entry O=C1NCc2c1c1c(c3c2c2ccccc2n3CCO)CCc2cc(OCc3ccccn3)ccc2-1 has what inhibition?
### Response 36%

### Prompt Entry O=C1NCc2c1c1c(c3c2c2ccccc2n3CCO)CCc2ccccc2-1 has what inhibition?
### Response 14%

### Prompt Entry N#CCCCOc1ccc2c(c1)CCc1c-2c2c(c3c4ccccc4n(CCO)c13)CNC2=O has what inhibition?
### Response 58%

### Prompt Entry O=C1NCc2c1c1c(c3c2c2ccccc2n3CCO)CCc2cc(O)ccc2-1 has what inhibition?
### Response 32%

### Prompt Entry O=C1NCc2c1c1c(c3[nH]c4ccccc4c23)CCc2cc(O)ccc2-1 has what inhibition?
### Response 9%

### Prompt Entry O=C1NCc2c1c1c(c3c2c2ccccc2n3CCO)CCc2cc(OCCOCc3ccccc3)ccc2-1 has what inhibition?
### Response 9%

### Prompt Entry O=C1NCc2c1c1c(c3c2c2ccccc2n3CCO)CCc2cc(OCC3CC3)ccc2-1 has what inhibition?
### Response 30%

### Prompt Entry COCCOc1ccc2c(c1)CCc1c-2c2c(c3c4ccccc4n(CCO)c13)CNC2=O has what inhibition?
### Response 52%

* * *

Target: High affinity nerve growth factor receptor (Homo sapiens)
Test: Inhibition of human TrkA expressed in baculovirus insect cell system
Property Label: IC50 (nM)
Please reply with the bare figure in nM and do not write the unit itself.

### Prompt Entry CC(C)Oc1ccc2c(c1)CCc1c-2c2c(c3c4ccccc4n(CCO)c13)CNC2=O has what IC50?
### Response 1050

* * *

Assay: Volume of distribution in Sprague-Dawley rat at 2 mg/kg, iv
Format: ADME, organism-based
Parameters: dose 2 mg/kg, route intravenous
Details: in vivo
Property Label: Vd
# do not omit the unit; it follows the number

### Prompt Entry COc1ccc2c(c1)CCc1c-2c2c(c3c4ccccc4n(CCO)c13)CNC2=O has what Vd?
### Response 0.9 L/kg

* * *

Target: Tyrosine-protein kinase Lck (Homo sapiens, UniProt P06239)
Property Label: IC50

### Prompt Entry COc1ccc2c(c1)CCc1c-2c2c(c3c4ccccc4n(CCO)c13)CNC2=O has what IC50?
### Response 6.4 µM

* * *

I'd be grateful if you could share measured pIC50 for these entries.
Biological target: Dual specificity mitogen-activated protein kinase kinase 4 (Homo sapiens)
Sequence (P45985 whole entry): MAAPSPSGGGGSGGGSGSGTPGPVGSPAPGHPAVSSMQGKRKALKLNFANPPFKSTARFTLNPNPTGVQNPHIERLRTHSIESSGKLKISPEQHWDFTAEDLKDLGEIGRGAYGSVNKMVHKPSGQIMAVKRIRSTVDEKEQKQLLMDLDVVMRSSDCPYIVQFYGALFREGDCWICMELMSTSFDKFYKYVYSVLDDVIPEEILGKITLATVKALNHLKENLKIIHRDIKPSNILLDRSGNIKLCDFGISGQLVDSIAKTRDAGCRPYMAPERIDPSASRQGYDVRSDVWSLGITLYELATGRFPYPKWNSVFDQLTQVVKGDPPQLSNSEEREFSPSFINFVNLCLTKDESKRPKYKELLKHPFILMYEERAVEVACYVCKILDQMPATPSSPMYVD
Experiment: Inhibition of human MKK4/7 expressed in baculovirus insect cell system
pIC50: −log10 of the molar value.

### Prompt Entry CC(C)Oc1ccc2c(c1)CCc1c-2c2c(c3c4ccccc4n(CCO)c13)CNC2=O has what pIC50?
### Response < 5.52

### Prompt Entry COc1ccc2c(c1)CCc1c-2c2c(c3c4ccccc4n(CCO)c13)CNC2=O has what pIC50?
### Response < 5.52

* * *

Assay: Cmax in Sprague-Dawley rat at 4 mg/kg, po
Type: ADME, organism-based
Parameters: dose 4 mg/kg, route oral
Conditions: in vivo
Property Label: Cmax (ng/mL)
Please reply with the bare figure in ng/mL and do not write the unit itself.

### Prompt Entry COc1ccc2c(c1)CCc1c-2c2c(c3c4ccccc4n(CCO)c13)CNC2=O has what Cmax?
### Response 572
